Field: AAPH inhibition (%, at 100 µM). Provide a value for each of the compounds that follow.
Experimental Details: Inhibition of linoleic acid peroxidation (AAPH-induced)
Numbers only, in %.

Some compounds with recorded AAPH inhibition (%, at 100 µM):
>>> print(df.to_string())
                                   compound  measured_result
0  COC(=O)CC[C@H](NC(=O)/C=C/c1cccc2ccccc12)C(=O)OC [Compound 17c]               57
1  COC(=O)CC[C@H](NC(=O)/C=C/c1ccc(Cl)cc1)C(=O)OC [Compound 16c]               26

Go through the list and state AAPH inhibition (%, at 100 µM) for each entry.
1. COC(=O)CCCNC(=O)/C=C/c1ccc(F)cc1 [Compound 27b]
2. CCOC(=O)CNC(=O)/C=C/c1ccc(Br)cc1 [Compound 14a]
3. COC(=O)CC[C@H](NC(=O)/C=C/c1ccc2c(c1)OC(C)(C)O2)C(=O)OC [Compound 29c]

Response given:
[22, 69, 27]

Go through the list and state AAPH inhibition (%, at 100 µM) for each entry.
1. COC(=O)CC[C@H](NC(=O)/C=C/c1ccc2c(c1)OCO2)C(=O)OC [Compound 20c]
2. O=C(O)/C=C/c1ccc(O)c(O)c1 [Compound 28, trans-caffeic acid]
3. COc1cc(/C=C/C(=O)O)ccc1O
4. COC(=O)CCCNC(=O)/C=C/c1ccc(OC)c(OC)c1 [Compound 18b]

Response given:
20
80
86
75

----------
Target Or System: soybean lipoxygenase (LOX-1) (Glycine max, UniProt P08170)
Construct: purchased Sigma Chemical, Co. (St Louis, MO, USA)
Sequence (P08170 whole entry): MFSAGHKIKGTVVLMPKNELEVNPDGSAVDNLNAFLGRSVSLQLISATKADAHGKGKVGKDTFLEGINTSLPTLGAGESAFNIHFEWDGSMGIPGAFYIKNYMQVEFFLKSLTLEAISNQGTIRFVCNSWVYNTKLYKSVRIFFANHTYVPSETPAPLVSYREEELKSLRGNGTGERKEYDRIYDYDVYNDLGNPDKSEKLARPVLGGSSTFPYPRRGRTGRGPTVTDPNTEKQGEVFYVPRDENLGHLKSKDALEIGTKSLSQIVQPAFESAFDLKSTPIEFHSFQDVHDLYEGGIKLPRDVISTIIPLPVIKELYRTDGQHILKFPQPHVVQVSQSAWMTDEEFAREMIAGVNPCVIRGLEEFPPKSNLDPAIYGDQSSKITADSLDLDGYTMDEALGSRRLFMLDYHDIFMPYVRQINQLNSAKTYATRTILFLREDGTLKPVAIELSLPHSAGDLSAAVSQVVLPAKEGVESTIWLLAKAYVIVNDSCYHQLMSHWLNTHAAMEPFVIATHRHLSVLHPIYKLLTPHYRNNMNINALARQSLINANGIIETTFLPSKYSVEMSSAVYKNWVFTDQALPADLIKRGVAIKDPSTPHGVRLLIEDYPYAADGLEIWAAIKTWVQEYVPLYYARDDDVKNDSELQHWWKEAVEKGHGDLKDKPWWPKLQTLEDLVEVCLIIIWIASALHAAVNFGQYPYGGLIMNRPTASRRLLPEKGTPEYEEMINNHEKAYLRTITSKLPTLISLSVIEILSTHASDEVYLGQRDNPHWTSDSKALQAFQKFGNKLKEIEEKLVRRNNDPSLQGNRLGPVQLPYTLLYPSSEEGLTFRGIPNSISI
Experimental Details: Soybean lipoxygenase inhibition study
Type: biochemical
Readout Kind: pIC50
Numbers only, as −log10 of the molar value.

>>> df
       compound_structure  measured_result
0  O=C(O)/C=C/c1ccc(O)cc1             5.00

Moving on to another compound below.
Kindly note the recorded pIC50 for "O=C(O)/C=C/c1ccc(OCc2ccc(Br)cc2)cc1" , which is 4.00

----------
Experimental Details: Inhibition of linoleic acid peroxidation (AAPH-induced)
So basically every entry gets a class from its AAPH inhibition (%, at 100 µM), ranges being low band = under 20%, middle band = from 20% up to 60%, high band = 60% and over

>>> df
                                   compound        label
0  CCOC(=O)CNC(=O)/C=C/c1ccc(C(F)(F)F)cc1 [Compound 13a]     low band
1  COC(=O)CC[C@H](NC(=O)/C=C/c1ccc(C(F)(F)F)cc1)C(=O)OC [Compound 13c]  middle band
2  COC(=O)CCCNC(=O)/C=C/c1ccc(OC(C)=O)cc1 [Compound 30b]     low band
3  CC1(C)Oc2ccc(/C=C/C(=O)O)cc2O1 [Compound 29]  middle band
4  COC(=O)CC[C@H](NC(=O)/C=C/c1ccc(Br)cc1)C(=O)OC [Compound 14c]  middle band

Challenge: Class label required: CCOC(=O)CNC(=O)/C=C/c1cccc(Br)c1 [Compound 15a]
Response given: middle band

Challenge: Class label required: COC(=O)CC[C@H](NC(=O)/C=C/C=C/c1ccccc1)C(=O)OC [Compound 23c]
Response given: middle band
